Assign Drug uptake to each entry below.
- Protocol summary: Drug uptake in human SGC7901 cells at 5 uM after 48 hrs by flow cytometry relative to control
- Assay type: ADME, cell-based
- Condition set: sgc-7901, 48 h

Here is how some molecules turned out for Drug uptake.
Compound string | Drug uptake
O=c1[nH]c(=O)n(CCSSCC[n+]2ccc(/C=C/c3c[nH]c4ccccc34)cc2)cc1F.[Br-] | 99.6%
O=C(Cn1cc(F)c(=O)[nH]c1=O)OCC[n+]1ccc(/C=C/c2c[nH]c3ccccc23)cc1.[Br-] | 95.8%
O=c1[nH]c(=O)n(CCC[n+]2ccc(/C=C/c3c[nH]c4ccccc34)cc2)cc1F.[Br-] | 62.6%

# ---- query molecule ----
Give reported Drug uptake value for O=C(Cn1cc(F)c(=O)[nH]c1=O)NCC[n+]1ccc(/C=C/c2c[nH]c3ccccc23)cc1.[Br-] 1.6%
